These measurements were taken from patent US20080161366A1.

Assign IC50 to each entry below.
system.name: human norepinephrine transporter (hNET) (Homo sapiens)
protocol.details: hNET uptake, Protocol B: cell based norepinephrine reuptake assay using recombinant hNET (MDCK-Net6 cells)
condition: NE uptake (Protocol B) IC50 (nM), MDCK-Net6 cells, 3H-NE 16 nM
Where a name gives a salt, the structure may show the parent alone.
I'd appreciate it if you wrote the number followed by its unit.

INSERT INTO measurements (compound, endpoint_name, recorded_measurement) VALUES
  ('NCCCN1c2ccccc2N(c2c(F)cc(F)cc2F)S1(=O)=O [Example 70, hydrochloride]', 'IC50', '277 nM'),
  ('CN(C)CCCCCN1c2ccccc2N(c2ccc(F)cc2F)S1(=O)=O [Example 117, hydrochloride]', 'IC50', '7190 nM'),
  ('O=S1(=O)N(CCCNC2CC2)c2ccccc2N1c1ccccc1F', 'IC50', '21 nM'),
  ('NCCCN1c2ccccc2N(c2c(F)cccc2F)S1(=O)=O [Example 69, hydrochloride]', 'IC50', '10.4 nM'),
  ('NCCCN1c2ccccc2N(c2ccccc2F)S1(=O)=O', 'IC50', '13.1 nM'),
  ('CNCCCN1c2ccccc2N(c2ncccc2C)S1(=O)=O [Example 27, hydrochloride]', 'IC50', '11.7 nM'),
  ('CNCCCN1c2ccccc2N(c2ccccn2)S1(=O)=O [Example 31, hydrochloride]', 'IC50', '23.6 nM'),
  ('CNCCCN1c2ccccc2N(c2ccccc2C)S1(=O)=O', 'IC50', '7.06 nM');

Please look at the items below and tell me IC50 for each one, in order.
1. CNCCCN1c2ccccc2N(c2ccc(O)cc2F)S1(=O)=O [Example 92, hydrochloride]
2. CNCCCN1c2c(F)cccc2N(c2ccccc2)S1(=O)=O
3. CNCCCN1c2ccccc2N(c2ccccc2Cl)S1(=O)=O [Example 52, hydrochloride]
4. CNCCCCN1c2ccccc2N(c2c(F)cc(F)cc2F)S1(=O)=O [Example 81, hydrochloride]
5. CNCCCN1c2ccccc2N(c2ccc(F)c(F)c2F)S1(=O)=O
6. CNCCCN1c2ccccc2N(c2ccc(OC)cc2)S1(=O)=O
7. CNCCCN1c2ccccc2N(c2cc(F)cc(F)c2)S1(=O)=O [Example 47, hydrochloride]
8. CNCCCN1c2ccccc2N(c2cccc(C)c2)S1(=O)=O

1: 3 nM; 2: 29.3 nM; 3: 2.74 nM; 4: 19 nM; 5: 109 nM; 6: 1780 nM; 7: 2.73 nM; 8: 96.2 nM

###

Assign inhibition at 2 µM to each entry below.
system.name: human norepinephrine transporter (hNET) (Homo sapiens)
protocol.details: hNET uptake, Protocol A: inhibition of [3H] NE uptake into cloned human NE transporters (MDCK cells)
Assay type: cell-based
Parameters: expressed in transfected cells; host or cells: MDCK-Net6 cells
condition: MDCK; read-out: NE uptake (Protocol A) % inh. @ 2 uM
Description: hNET Assay Procedure Protocol A: Inhibition of [^3H] NE Uptake into Cloned Human NE Transporters (MDCK Cells) (“hNET uptake”) [^3H] […] Cells were seeded at 300,000/T75 flask, and split twice weekly. All uptake experiments were performed in 96-well plates (Falcon Optilux, cat #353947) in a total volume of 250 μl/well. MDCK cells were plated at 50,000 cells/well. […] IC50 values were calculated using a Prism® nonlinear regression program where % inhibition is plotted versus concentration of inhibitor.
I'd appreciate it if you wrote the number followed by its unit.

# count of solved cases: 3
INSERT INTO results (compound_structure_string, system_name, endpoint_name, recorded_measurement) VALUES
  ('CNCCN1c2ccccc2N(c2ccc(Cl)cc2)S1(=O)=O', 'human norepinephrine transporter (hNET) (Homo sapiens)', 'inhibition at 2 µM', '15%'),
  ('NCCN1c2ccccc2N(c2ccc(Cl)cc2)S1(=O)=O', 'human norepinephrine transporter (hNET) (Homo sapiens)', 'inhibition at 2 µM', '3%'),
  ('CCN(C)CCCCN1c2ccccc2N(c2ccc(Cl)cc2)S1(=O)=O', 'human norepinephrine transporter (hNET) (Homo sapiens)', 'inhibition at 2 µM', '28%');

Please look at the items below and tell me inhibition at 2 µM for each one, in order.
1. CCCCNCCCCN1c2ccccc2N(c2ccc(Cl)cc2)S1(=O)=O
2. CCNCCCN1c2ccccc2N(c2ccc(Cl)cc2)S1(=O)=O

27%
37%

###

Assign half-life at 1 µM to each entry below.
protocol.details: Rat liver microsomal stability assay
Format: in vitro ADME
condition: pH 7.4; rat liver microsomes, 37° C., NADPH; read-out: RLM stability t1/2
Numbers only, in min.

# count of solved cases: 4
INSERT INTO results (molecule, recorded_measurement) VALUES
  ('CNCCCCN1c2ccccc2N(c2c(F)cccc2F)S1(=O)=O [drawing 162]', 1),
  ('CCNCCCN1c2ccccc2N(c2ccccc2F)S1(=O)=O [drawing 170]', 1),
  ('CNCCCN1c2ccccc2N(c2cc(F)ccc2F)S1(=O)=O [drawing 164]', 2),
  ('CNCCCCN1c2ccccc2N(c2ccc(F)cc2F)S1(=O)=O', 11);

Please look at the items below and tell me half-life at 1 µM for each one, in order.
1. CNCCCN1c2ccccc2N(c2cccc(OC)c2)S1(=O)=O [drawing 169]
2. CNCCCN1c2ccccc2N(c2ccc(F)cc2F)S1(=O)=O [drawing 165]
3. CNCCCN1c2ccccc2N(c2ccccc2)S1(=O)=O [drawing 157]
4. CNCCCCN1c2ccccc2N(c2ccc(F)cc2)S1(=O)=O [drawing 167]
5. CNCCCN1c2ccccc2N(c2ccc(F)c(F)c2)S1(=O)=O [drawing 163]

[2, 10, 2, 19, 18]

# get_value(readout='half-life at 1 µM', item= CNCCCCN1c2ccccc2N(c2ccccc2)S1(=O)=O [drawing 158] )
2

###

system.name: hNET (Homo sapiens)
Structures can show the parent of a compound that is named as a salt.
endpoint.name: pIC50
Numbers only, as −log10 of the molar value.

# get_value(readout='pIC50', item= NCCCCCN1c2ccccc2N(c2ccc(F)cc2F)S1(=O)=O [Example 116, hydrochloride] )
6.17

###

system.name: human norepinephrine transporter (hNET) (Homo sapiens, UniProt P23975)
Sequence (P23975 whole entry): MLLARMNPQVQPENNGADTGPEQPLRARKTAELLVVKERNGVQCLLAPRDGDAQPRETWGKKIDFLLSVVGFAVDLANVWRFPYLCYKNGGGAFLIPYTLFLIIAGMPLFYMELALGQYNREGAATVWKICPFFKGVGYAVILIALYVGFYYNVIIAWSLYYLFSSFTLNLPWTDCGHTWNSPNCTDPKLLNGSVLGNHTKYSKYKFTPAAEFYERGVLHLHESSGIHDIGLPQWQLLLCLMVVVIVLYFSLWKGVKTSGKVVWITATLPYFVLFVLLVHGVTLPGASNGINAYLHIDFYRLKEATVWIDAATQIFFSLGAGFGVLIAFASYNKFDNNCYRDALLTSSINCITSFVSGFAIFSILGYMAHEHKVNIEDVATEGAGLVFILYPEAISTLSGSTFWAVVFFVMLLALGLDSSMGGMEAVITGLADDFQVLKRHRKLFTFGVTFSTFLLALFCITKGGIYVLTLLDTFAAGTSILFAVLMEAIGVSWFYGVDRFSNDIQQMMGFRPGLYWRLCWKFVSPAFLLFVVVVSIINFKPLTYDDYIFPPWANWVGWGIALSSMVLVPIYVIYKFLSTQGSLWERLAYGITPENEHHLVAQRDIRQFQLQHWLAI
protocol.details: hNET uptake, Protocol B: cell based norepinephrine reuptake assay using recombinant hNET (MDCK-Net6 cells)
condition: NE uptake (Protocol B) IC50 (nM), MDCK-Net6 cells, 3H-NE 16 nM
Structures can show the parent of a compound that is named as a salt.
Assign IC50 to each entry below.
Give bare numbers, in nM.

Please look at the items below and tell me IC50 for each one, in order.
1. CNCCCN1c2ccccc2N(c2ccc(F)cc2F)S1(=O)=O [Example 114, hydrochloride]
2. CNCCCN1c2c(F)cccc2N(c2ccc(F)cc2F)S1(=O)=O [Example 78, hydrochloride]
3. Cc1ccc(N2c3ccccc3N(CCCCN(C)C)S2(=O)=O)c(F)c1 [Example 106]
4. Cc1cc(F)ccc1N1c2ccccc2N(CCCN)S1(=O)=O [Example 63]
5. CNCCCN1c2ccccc2N(c2cc(F)ccc2F)S1(=O)=O [Example 48, hydrochloride]

1. 11
2. 45
3. 591
4. 324
5. 2.78

###

Assign IC50 to each entry below.
system.name: human norepinephrine transporter (hNET) (Homo sapiens, UniProt P23975)
protocol.details: hNET uptake, Protocol B: cell based norepinephrine reuptake assay using recombinant hNET (MDCK-Net6 cells)
condition: hNET Function IC50 (nM), protocol not stated
Give bare numbers, in nM.

INSERT INTO assay_data (molecule, endpoint_name, recorded_measurement) VALUES
  ('CNCCCN1c2ccccc2N(c2ccc(F)cc2F)S1(=O)=O [drawing 165]', 'IC50', 11.3),
  ('CNCCCN1c2ccccc2N(c2cc(F)ccc2F)S1(=O)=O [drawing 164]', 'IC50', 2.7),
  ('CNCCCCN1c2ccccc2N(c2ccc(F)cc2)S1(=O)=O [drawing 167]', 'IC50', 46.1),
  ('CNCCCN1c2ccccc2N(c2cccc(OC)c2)S1(=O)=O [drawing 169]', 'IC50', 10.8);

Now let's try a different one.
# get_value(readout='IC50', item= CNCCCCN1c2ccccc2N(c2ccccc2)S1(=O)=O [drawing 158] )
0.3

###

system.name: human norepinephrine transporter (hNET) (Homo sapiens, UniProt P23975)
protocol.details: hNET uptake, Protocol B: cell based norepinephrine reuptake assay using recombinant hNET (MDCK-Net6 cells)
condition: NE uptake (Protocol B) IC50 (nM), MDCK-Net6 cells, 3H-NE 16 nM
Counter-ions that a name gives are not always drawn.
endpoint.name: IC50 (nM)
Answers are plain numbers, in nM.

# count of solved cases: 6
INSERT INTO results (molecule, recorded_measurement) VALUES
  ('O=S1(=O)N(CCCNCCO)c2ccccc2N1c1ccccc1F [Example 135]', 43),
  ('CNCCCN1c2ccccc2N(c2ccc(OC)cc2F)S1(=O)=O [Example 91, hydrochloride]', 325),
  ('CNCCCN1c2ccccc2N(c2ccc3ccccc3c2)S1(=O)=O [Example 14]', 2620),
  ('CCNCCCCN1c2ccccc2N(c2ccc(F)cc2F)S1(=O)=O [Example 121, hydrochloride]', 1500),
  ('NCCCN1c2ccccc2N(c2ccc(F)cc2Cl)S1(=O)=O [Example 61, hydrochloride]', 113),
  ('CNCCCN1c2cccnc2N(c2ccccc2)S1(=O)=O [Example 24]', 60.9);

Now let's try a different one.
Item: CNCCCN1c2ccccc2N(c2ccccc2)S1(=O)=O [Example 5] Test system: human norepinephrine transporter (hNET) (Homo sapiens, UniProt P23975) Read-out: IC50 Value: ?
2.63
